Please respond with reported apparent KD of MS2 coat protein for every item in the list.
tested on: MS2 coat protein; test: apparent KD of MS2 coat protein; designed switch direction (-1 OFF switch, 1 ON switch): 1; higher = weaker reporter binding; details: input ligand: FMN 200 uM
Give the value in µM but do not write µM after it.

Problem: Looking for the measured apparent KD of MS2 coat protein of AGUCCAGCCUGAGCUGGACAAAAGCAUGUACAUGAGGAUCACCCAUGUCAUGUACAAGCUUUUUGCAAAUCUUAAUA [Mat - hsa-mir-208a - Mod of JL - D34] (Eterna round: R96, puzzle: Sensor for hsa-mir-208a) , can you help?
Solution: 0.999

Problem: Recorded apparent KD of MS2 coat protein for GUUACAUGAGGAUCACCCAUGUAUGUGUGGGAGUAAGUGUCUUAGGAUAUCUAUCAUUUAAUUGAAGAGAAGGAAGAUUGUUGU [JMF's solution 99] (Eterna round: R96, puzzle: Same State NG 3) , please?
Solution: 0.14

Problem: Look at this sequence and give its reported apparent KD of MS2 coat protein. AAUUAAGAUUGAGGAUAUCACGUCGAUUAGACGUGAGAAGGCGAUCAUAACAUGAGGAUCACCCAUGUAUUACAUGAAUUAAUU [SSNG1/5-B2] (Eterna round: R96, puzzle: Same State NG 1)
Solution: 0.0319

Problem: Recorded apparent KD of MS2 coat protein of AGCGAACAGGCUAACAUGAGGAUCACCCAUGUGGACUCAUGUUAGGAUAUCGGGAAGGAGGAAACCGAGAAGGGACGGUGAGCC [AK SSNG3-V2-46] (Eterna round: R96, puzzle: Same State NG 3) , please.
Solution: 0.332

---

test system: MS2 coat protein; assay: apparent KD of MS2 coat protein; designed switch direction (-1 OFF switch, 1 ON switch): 1; higher = weaker reporter binding; conditions: input ligand: none
Answer condition not met if apparent KD of MS2 coat protein is under 80 nM, and condition met if it is 80 nM or more.

Problem: Please check the record GCUAGAAUAAAUGCUAACAUGAGGAUCACCCAUGUAUGUUGGCAGGAUAUCGUUUGCAAAGCAAACGAGAAGGGCCAUACUAGC [Mat - Same State NG 3 - JL Mod - D26] (Eterna round: R96, puzzle: Same State NG 3) and state if its apparent KD of MS2 coat protein is at or above 80 nM.
Solution: condition not met

Problem: apparent KD of MS2 coat protein >= 80 nM for AGGCCAUCGGGAGGAUAUGGCACCUUAUUGGUGCCAGAAGGUCCAACAUGAGGAUCACCCAUGUGGGAGAGUUCUAAUGAACAU [Fiskers NG1(SS) - 3] (Eterna round: R96, puzzle: Same State NG 1) ?
Solution: condition not met

Problem: State whether the measured apparent KD of MS2 coat protein reaches 80 nM, counting equality as reaching it, for CCAACGUACAAUUUAGAUCUACAUGAGGAUCACCCAUGUACGGAGGAUAUCAGCUCGAUUAGAGCUGAGAAGGCCGAAUUAAUU [SSNG3/2-A2] (Eterna round: R96, puzzle: Same State NG 3)
Solution: condition met

Problem: Dear colleague, could you confirm whether GCCAUCCAGUGAGGAUAUGGCACCGUUUCGGUGCCAGAAGGCAUGUCAAUUGACAUGAGGAUCACCCAUGUAUUAUGGAUGGCA [JL Fiskers NG1ss - 33 mod 1] (Eterna round: R96, puzzle: Same State NG 1) has apparent KD of MS2 coat protein at or above 80 nM?
Solution: condition met

Problem: Does apparent KD of MS2 coat protein meet or surpass 80 nM for UUACAGUGCGGGUAGGAUAUGUAGGGUGGUACAUGAGGAUCACCCAUGUAUCCACCCUUCGACCGGCAGAAGGGCCUGUCACUAC [Atarzale] (Eterna round: R96, puzzle: Same State 2) ?
Solution: condition not met

Problem: Assess whether reported apparent KD of MS2 coat protein for GGUAGGUUACUACCAAACAUGAGGAUCACCCAUGUAAGUGGGAAGGAUAUGGUACCUUUUAGGUACCAGAAGGUCCAAUUAAUU [JL Fiskers NG3ss - 2 mod 5] (Eterna round: R96, puzzle: Same State NG 3) sits at 80 nM or higher.
Solution: condition met

Problem: API: above_or_equal(metric=apparent KD of MS2 coat protein, cutoff=80 nM) for item UGGUACAUGGGAGGAUAUCCUCAGGAGACAUGAGGAUCACCCAUGUAAUUAAAGCCGAAAGGCAUGGAGAAGGCCCAUGUACCU [JL SSNG1 3.79] (Eterna round: R96, puzzle: Same State NG 2)
Solution: condition met

Problem: Is apparent KD of MS2 coat protein at least 80 nM? Consider GUUAGGAAUCUAGCACACAUGAGGAUCACCCAUGUUAGUGGGAAGGAUAUGGUACAGAAACUGUACCAGAAGGUCUUAUUGUUU [Omei SS(NG) 3 AV14] (Eterna round: R96, puzzle: Same State NG 3)
Solution: condition met
